B1: PWWP2B (parent)
chain: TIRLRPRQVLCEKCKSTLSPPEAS

Variants of: B1
Experiment: protein stability index of a GFP-peptide fusion (GPS, HEK-293T) (PSI 1-6); higher = more stable;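 also: lentivirally expressed fusions sorted by FACS into six bins by GFP to DsRed ratio, PSI derived from sequencing read proportions per bin multiplied by bin number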
Settings: c terminus: a fixed tail appended
For each entry below, report its protein stability index value.
Give bare numbers.

Look over these answered cases.
- VARIANT_LABEL: "R7Y"
  protein stability index: 2.69
- VARIANT_LABEL: "P6F"
  protein stability index: 2.05

Give protein stability index for each of the items listed below.
1. P6T
2. K15C
3. L18E
4. P6R

## Result
1. 3.09
2. 2.41
3. 3.92
4. 2.52

These entries and their values trace back to the supplement of paper PMC10567573.
